Test system: NCI-H226 lung
Assay: NCI tumour cell line growth inhibition, 48 h
recorded_endpoint: TGI

1. CC(=O)C1C(=O)C(=O)N(c2ccccc2)C1=O (stereo unspecified): > 100 µM

// each compound listed below needs its TGI
1. Oc1ccc([Te]CCNCC[Te]c2ccc(O)cc2)cc1
2. CC1(C)CC(O)C2=C(O1)C(=O)c1ncccc1C2=O (stereo unspecified)
3. NC1=CC(=O)c2cccnc2C1=O
4. Nc1nc2c(ncn2C2CCC(CO)O2)c(=O)n1C(=O)c1ccccc1 (stereo unspecified)
5. CCCCCCCCOCC(O)COC(C)C (stereo unspecified)
6. Oc1ccc2c(c1)CCc1c-2n(CCN2CCOCC2)c2ccc(O)cc12
7. COC(=O)c1c(C)cccc1C1CN=NC12Cc1ccccc1C2=O (stereo unspecified)
8. O=[N+]([O-])c1ccc(C2CC(c3ccccc3Cl)=Nc3ccccc3S2)cc1 (stereo unspecified)

["46.4 µM", "3.74 µM", "27.7 µM", "> 100 µM", "> 100 µM", "> 100 µM", "> 100 µM", "27.9 µM"]

----------
Test system: OVCAR-5 ovarian
Test: NCI tumour cell line growth inhibition, 48 h
recorded_endpoint: GI50

Look over these answered cases.
1) Cc1cc(=O)[nH]c(N/N=C/c2cc(Br)ccc2O)n1: 5.07 µM
2) O=C(COc1ccc(/C=C2\COc3ccccc3C2=O)cc1)Nc1nccs1: 16.7 µM

Turning now to a further record.
Returns the measured GI50 for the input compound. Input: CCCCCCCC/C=C/CCCCCCCC1=NC(C)(C)CN1CC(C)O (stereo not drawn)
3.6 µM

----------
Would you mind telling me the reported TGI of each entry?
System: A549 NSCLC
Assay: NCI tumour cell line growth inhibition, 48 h
One number for each entry, in µM.

1) COc1ccc(N=Cc2c(O)ccc3c2oc2cc(Cl)c(O)c(Cl)c23)cc1: 48.2

Turning now to a further record.
Returns the measured TGI for the input molecule. Input: C[C@]12CCc3nc(Nc4cccc(O)c4)sc3C1=CC[C@@H]1[C@@H]2CC[C@]2(C)/C(=N\NC(N)=S)CC[C@@H]12
11.4

----------
Test system: UO-31 renal
Experiment: NCI tumour cell line growth inhibition, 48 h
Would you mind telling me the reported GI50 of each entry?

Look over these answered cases.
1. N#Cc1c(NC(=O)NCc2ccccc2)sc2c1CCCC2: 740 nM
2. CO/C=C/C(=O)c1cc2cnc3c(=N)cc(NC(=O)C(C)C)c([nH]1)c23: 16.9 nM
3. OC(c1cc(-c2cccc(Cl)c2)nc2ccccc12)C1CCCCN1 (stereo not drawn): 1360 nM
4. COC(=O)[C@@H](C)C[C@H](Cc1cn(C)c2ccccc12)NC(=O)c1csc([C@@H](C[C@H](C(C)C)N(C)C(=O)[C@@H](NC(=O)[C@H]2CCCCN2C)C(C)C)OC(C)=O)n1: 169 nM
5. c1ccc(N2N=C(c3cccc(Nc4ccncc4)c3)CC2c2ccc3c(c2)OCO3)cc1 (stereo not drawn): 1400 nM

// each molecule listed below needs its GI50
1. O=c1cc(-c2ccccc2)oc2ccc(OC/C(=N/O)c3ccccc3)cc12
2. C[C@]12CC[C@@H]3c4cc(OC(F)F)c(O)cc4CC[C@H]3[C@@H]1CC[C@@H]2OS(N)(=O)=O
3. C=CCC(N[C@@H](CO)c1ccccc1)c1cn(Cc2ccccc2Cl)c(=O)n(Cc2ccccc2Cl)c1=O (stereo partly drawn)

["4340 nM", "1110 nM", "> 100000 nM"]
